Hey, just so you know, these numbers are from patent US11116760B2.

Target: α4β7 integrin (Homo sapiens (Human), UniProt P13612+P26010)
Sequence (P13612 34-1032): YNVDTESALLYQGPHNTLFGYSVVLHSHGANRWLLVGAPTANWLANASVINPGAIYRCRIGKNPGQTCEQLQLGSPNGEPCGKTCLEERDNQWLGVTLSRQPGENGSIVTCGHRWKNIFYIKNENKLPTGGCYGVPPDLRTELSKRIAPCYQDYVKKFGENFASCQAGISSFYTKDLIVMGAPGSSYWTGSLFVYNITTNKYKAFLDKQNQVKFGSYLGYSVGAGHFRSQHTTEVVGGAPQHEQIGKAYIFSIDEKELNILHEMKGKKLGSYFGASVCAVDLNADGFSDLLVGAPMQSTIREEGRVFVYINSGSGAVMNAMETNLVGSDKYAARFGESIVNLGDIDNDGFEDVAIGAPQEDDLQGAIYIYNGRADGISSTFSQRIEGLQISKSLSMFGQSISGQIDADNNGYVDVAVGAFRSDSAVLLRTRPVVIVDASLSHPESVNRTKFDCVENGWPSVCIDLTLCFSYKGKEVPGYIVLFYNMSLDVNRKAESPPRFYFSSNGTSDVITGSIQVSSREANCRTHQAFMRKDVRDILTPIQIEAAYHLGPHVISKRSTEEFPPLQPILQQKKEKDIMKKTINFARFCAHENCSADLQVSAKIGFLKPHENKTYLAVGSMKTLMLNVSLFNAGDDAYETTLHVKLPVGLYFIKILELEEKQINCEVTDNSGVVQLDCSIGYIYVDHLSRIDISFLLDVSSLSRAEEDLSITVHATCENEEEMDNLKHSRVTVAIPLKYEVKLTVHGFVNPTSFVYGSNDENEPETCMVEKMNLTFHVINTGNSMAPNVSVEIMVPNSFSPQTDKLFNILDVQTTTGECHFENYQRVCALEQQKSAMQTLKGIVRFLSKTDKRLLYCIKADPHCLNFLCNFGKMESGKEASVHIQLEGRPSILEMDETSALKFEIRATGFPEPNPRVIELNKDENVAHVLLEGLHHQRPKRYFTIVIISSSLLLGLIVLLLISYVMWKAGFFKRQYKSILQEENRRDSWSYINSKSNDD
Sequence (P26010 20-798): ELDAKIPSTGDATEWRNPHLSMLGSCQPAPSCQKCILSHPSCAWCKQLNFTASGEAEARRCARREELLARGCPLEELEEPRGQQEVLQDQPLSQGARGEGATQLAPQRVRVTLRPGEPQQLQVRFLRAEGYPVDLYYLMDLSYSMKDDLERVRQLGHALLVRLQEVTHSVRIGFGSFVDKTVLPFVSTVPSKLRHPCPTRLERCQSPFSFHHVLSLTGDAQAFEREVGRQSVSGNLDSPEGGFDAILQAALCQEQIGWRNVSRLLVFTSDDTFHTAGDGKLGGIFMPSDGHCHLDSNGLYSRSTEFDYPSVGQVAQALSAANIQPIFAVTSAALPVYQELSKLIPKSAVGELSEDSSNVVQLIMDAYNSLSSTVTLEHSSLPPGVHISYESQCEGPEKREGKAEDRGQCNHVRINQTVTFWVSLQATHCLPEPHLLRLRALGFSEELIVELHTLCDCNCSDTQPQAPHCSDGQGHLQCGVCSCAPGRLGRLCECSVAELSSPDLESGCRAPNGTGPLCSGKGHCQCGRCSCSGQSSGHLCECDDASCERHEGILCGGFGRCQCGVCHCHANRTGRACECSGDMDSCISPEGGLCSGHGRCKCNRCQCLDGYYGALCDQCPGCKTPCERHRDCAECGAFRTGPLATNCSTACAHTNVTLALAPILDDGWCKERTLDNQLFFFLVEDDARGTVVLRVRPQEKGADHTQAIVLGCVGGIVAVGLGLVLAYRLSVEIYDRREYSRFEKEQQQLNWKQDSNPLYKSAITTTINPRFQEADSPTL
Assay: α4β7 Integrin Cell Capture Assay
Assay type: cell-based
Settings: RPMI8866 cells captured on MadCAM-1 extracellular domain-coated plate
Listed molecules paired with reported pEC50
In plain terms, pEC50 is the concentration in mol/L turned into minus its base-10 logarithm.

molecule	pEC50
Cc1cc(C(F)(F)F)c(-c2ccc(C[C@H](NC(=O)c3c(F)cc(N4CCOC[C@@H]4C(F)(F)F)cc3C(C)C)C(=O)O)c3cccnc23)c(=O)n1C [Example 470]	9.74
Cc1cc(N2CCOC[C@@H]2C(F)(F)F)cc(F)c1C(=O)N[C@@H](Cc1ccc(-c2c(C)nc(C)n(C)c2=O)c2ncccc12)C(=O)O [Example 460]	9.82

Which pEC50 reading was recorded for the molecule Cn1c(=O)n(-c2ccc(C[C@H](NC(=O)c3c(F)cc(N4CCOC[C@@H]4C(F)(F)F)cc3F)C(=O)O)c3cccnc23)c(=O)c2ccc(F)cc21 [Example 423] ?
10.10

Same question for COc1cc2c(=O)n(-c3ccc(C[C@H](NC(=O)c4c(C)cc(N5CCOC[C@@H]5C(F)(F)F)cc4F)C(=O)O)c4cccnc34)c(=O)n(C)c2cn1 [Example 429] please.
9.79

Repeat with Cc1cc(N2CCCC[C@@H]2C(F)(F)F)cc(F)c1C(=O)N[C@@H](Cc1ccc(-c2nc(C)c(C)n(C)c2=O)c2ncccc12)C(=O)O [Example 453]
9.17

Please give the result for Cc1cc(C(F)(F)F)c(-c2ccc(C[C@H](NC(=O)c3c(F)cc(N4C[C@H]5C[C@H]5[C@@H]4C(F)(F)F)cc3F)C(=O)O)c3cccnc23)c(=O)n1C [Example 483] too.
9.26

* * *

Property: pEC50; scope: individual molecules
Target: α4β7 integrin (Homo sapiens (Human), UniProt P13612+P26010)
Experiment: α4β7 Integrin Cell Capture Assay
Format: cell-based
Settings: Table 1; capture of α4β7 expressing RPM18866 cells on MadCAM-1 extracellular domain-coated plate
The scale used: pEC50 is minus the common logarithm of the concentration in molar units.

Answered examples (3):
molecule	pEC50
N#Cc1ccc(-c2ccc(C[C@H](NC(=O)c3c(F)cc(N4CCO[C@H](C(F)(F)F)C4)cc3F)C(=O)O)c3cccnc23)c(Cl)c1	7.60
CC[C@@H](Nc1cc(F)c(C(=O)N[C@@H](Cc2ccc(-c3nc(C)c(C)n(C)c3=O)c3ncccc23)C(=O)O)c(F)c1)C(F)(F)F	9.15
Cc1cc(C(F)(F)F)c(-c2ccc(C[C@H](NC(=O)c3c(F)cccc3F)C(=O)O)c3cccnc23)nc1C	8.15

Requested field: pEC50. Item: `CC[C@@H](Nc1cc(F)c(C(=O)N[C@@H](Cc2ccc(-c3c(C)n(C)c4ccc(F)cc4c3=O)c3ncccc23)C(=O)O)c(F)c1)C(F)(F)F`
8.03

Similarly, `CC[C@@H](Nc1cc(F)c(C(=O)N[C@@H](Cc2ccc(-c3nccc(OC)c3C(F)(F)F)c3ncccc23)C(=O)O)c(F)c1)C(F)(F)F` ?
8.70

Then this molecule: `CC[C@@H](Nc1cc(F)c(C(=O)N[C@@H](Cc2ccc(-c3c(OC)cc(CN4CCOCC4)cc3OC)c3ncccc23)C(=O)O)c(F)c1)C(F)(F)F`
8.77

Same lookup for `O=C(N[C@@H](Cc1ccc(-c2c(Cl)cc(F)cc2Cl)c2ncccc12)C(=O)O)c1c(F)cccc1F` , please.
7.30

Same again, this time with `CC[C@@H](Nc1cc(F)c(C(=O)N[C@@H](Cc2ccc(-c3nc(C)ccc3OC)c3ncccc23)C(=O)O)c(F)c1)C(F)(F)F`
8.89

Record: `CC[C@@H](Nc1cc(F)c(C(=O)N[C@@H](Cc2ccc(-c3c(C)c(C)c(C)n(C)c3=O)c3ncccc23)C(=O)O)c(F)c1)C(F)(F)F`
9.22

Now give it for `Cc1cc(C(F)(F)F)c(-c2ccc(C[C@H](NC(=O)c3c(F)cc(N4CCOC[C@@H]4C(F)(F)F)cc3F)C(=O)O)c3cccnc23)c(=O)n1C` too.
9.70

Next molecule: `CC[C@@H](Nc1cc(F)c(C(=O)N[C@@H](Cc2ccc(-c3c(C(F)(F)F)cc(C)n(C)c3=O)c3ncc(N(C)C)cc23)C(=O)O)c(F)c1)C(F)(F)F`
7.93

Cool, now `CC[C@@H](Nc1cc(Cl)c(C(=O)N[C@@H](Cc2ccc(-c3c(C(F)(F)F)cc(C)n(C)c3=O)c3ncccc23)C(=O)O)c(Cl)c1)C(F)(F)F`
9.52

And the next one, `CC[C@@H](Nc1cc(F)c(C(=O)N[C@@H](Cc2ccc(-c3nn(C)c(=O)cc3C)c3ncccc23)C(=O)O)c(F)c1)C(F)(F)F` ?
7.69

What do you get for `CC[C@@H](N(C)c1cc(F)c(C(=O)N[C@@H](Cc2ccc(-c3c(C(F)(F)F)cc(C)n(C)c3=O)c3ncccc23)C(=O)O)c(F)c1)C(F)(F)F` ?
9.40

What would you report for `CCOCc1cc(OC)c(-c2ccc(C[C@H](NC(=O)c3c(F)cc(C#N)cc3F)C(=O)O)c3cccnc23)c(OC)c1` ?
7.87

Queued: `O=C(N[C@@H](Cc1ccc(-c2ncccn2)c2ncccc12)C(=O)O)c1c(F)cc(NS(=O)(=O)c2ccc(-c3ccnc(F)c3)cc2)cc1F`
8.70

// repeat for `COc1cc(F)cc(C(F)(F)F)c1-c1ccc(C[C@H](NC(=O)c2c(F)cccc2F)C(=O)O)c2cccnc12` and report
8.35

Please do the same for `N#Cc1ccc(-c2ccc(C[C@H](NC(=O)c3c(F)cc(C(=O)NCC(F)(F)F)cc3F)C(=O)O)c3cccnc23)c(Cl)c1` as well.
7.47

Try the molecule `N#CCc1ccc(-c2ccc(C[C@H](NC(=O)c3c(F)cc(NS(=O)(=O)c4ccc(-c5ccnc(F)c5)cc4)cc3F)C(=O)O)c3cccnc23)c(Cl)c1`
8.52

Would you kindly repeat that for `COc1cc(C)nc(-c2ccc(C[C@H](NC(=O)c3c(F)cc(N4CCOC[C@@H]4C(F)(F)F)cc3F)C(=O)O)c3cccnc23)n1` ?
7.95

And then `N#Cc1ccc(-c2ccc(C[C@H](NC(=O)c3c(F)cc(N4CCNC[C@@H]4C(F)(F)F)cc3F)C(=O)O)c3cccnc23)c(Cl)c1` , what is it?
7.04

Try `COc1cccc(F)c1C(=O)N[C@@H](Cc1ccc(-c2ccc(C#N)cc2Cl)c2ncccc12)C(=O)O` next.
7.33

Item: CC[C@@H](Nc1cc(F)c(C(=O)N[C@@H](Cc2ccc(-c3c(C(F)(F)F)cc(C)n(C)c3=O)c3ncccc23)C(=O)O)c(F)c1)C(F)(F)F (single isomer, unassigned) [Example 107]
9.70

// next record `O=C(N[C@@H](Cc1ccc(-c2ncc3ccccc3c2C(F)(F)F)c2ncc(F)cc12)C(=O)O)c1c(Cl)cccc1Cl`
8.21
